Source: patent US5753661A

target: 5-HT1A receptor (Rattus norvegicus, UniProt P19327); assay: Inhibition of 3H-8-OH-DPAT binding to serotonin 5-HT1A receptors in rat brain in vitro; design: 5-HT1A receptors in membranes from rat brain minus cerebellum; from tissue; host or cells: rat brain minus cerebellum, membranes; conditions: 3H-8-OH-DPAT 1 nM; membranes from rat brain minus cerebellum; read-out: IC50, 3H 8-OH-DPAT binding
pIC50: −log10 of the molar value.
# if value of pIC50 reaches 8, tag Met; if it stays below, tag Not met

Please review the entries below; each comes with its answer.
CC1(C)Cc2c(cccc2N2CCN(CCCN3CCN(C4CCCCC4)C3=O)CC2)O1 [Compound 14d] | Not met
O=c1n(CCN2CCN(c3cccc4c3OCCO4)CC2)c2ccccc2n1-c1ccc(F)cc1 [Compound 12a] | Not met
CC(C)(C)N1CCN(CCN2CCN(c3cccc4c3OCCO4)CC2)C1=O [Compound 2ee] | Not met

Consider the record given below.
[ask] Reported pIC50 at or above 8? O=C1N(CCN2CCN(c3cccc4cnsc34)CC2)CCN1c1ccccc1 [Compound 2x]
[reply] Not met

* * *

molecular target: 5-HT1A receptor (Rattus norvegicus); assay: Inhibition of 3H-8-OH-DPAT binding to serotonin 5-HT1A receptors in rat brain in vitro; set-up: 5-HT1A receptors in membranes from rat brain minus cerebellum; from tissue; host or cells: rat brain minus cerebellum, membranes; settings: 3H-8-OH-DPAT 1 nM; membranes from rat brain minus cerebellum; read-out: IC50, 3H 8-OH-DPAT binding
pIC50: −log10 of the molar value.
# if value of pIC50 reaches 8, tag 1 (yes); if it stays below, tag 0 (no)

Please review the entries below; each comes with its answer.
CCOC(=O)c1cc2cccc(N3CCN(CCN4CCN(c5ccccc5)C4=O)CC3)c2[nH]1 [Compound 2j] | 0 (no)
CC(C)N1CCN(CCN2CCN(c3cccc4c3OCCO4)CC2)C1=O [Compound 2o] | 0 (no)
O=C1N(CCN2CCN(c3cccc4occc34)CC2)CCN1c1ccccc1 [Compound 2r] | 0 (no)

Consider the record given below.
[ask] Reported pIC50 at or above 8? O=S(=O)(CCCN1CCN(c2cccc3c2OCCO3)CC1)C1CCCCC1 [Compound 1a]
[reply] 1 (yes)

* * *

target: 5-HT1A receptor (Rattus norvegicus, UniProt P19327); assay: Inhibition of 5-MeO-DMT-induced 5-HT syndrome in rats; format: in vivo, rat (male Wistar); set-up: Male Wistar rats (Mol:Wist) weighing 170-240 g are used; from tissue; host or cells: living male Wistar rat (Mol:Wist) (in vivo, endogenous receptor); conditions: sc, 5-MeO-DMT 5 mg/kg s.c., inhibition of piano playing
outcome_measure: ED50 (µmol/kg)
Supply the numeric figure in µmol/kg, leaving out any unit text.

Some compounds with recorded ED50:
CC1(C)Cc2cccc(N3CCN(CCN4CCN(C5CCCC5)C4=O)CC3)c2O1 | 4.2
O=S(=O)(CCCN1CCN(c2cccc3c2OCCO3)CC1)C12CC3CC(CC(C3)C1)C2 | 0.47

Please look at the following compound next.
[ask] // ED50 lookup, key: `O=c1n(CCN2CCN(c3cccc4c3OCCO4)CC2)ccn1-c1ccc(F)cc1`
[reply] 12

* * *

molecular target: UniProtKB P19327; assay: Inhibition of 3H-8-OH-DPAT binding to serotonin 5-HT1A receptors in rat brain in vitro; parameters: 5-HT1A receptors in membranes from rat brain minus cerebellum; from tissue; host or cells: rat brain minus cerebellum, membranes; conditions: 3H-8-OH-DPAT 1 nM; membranes from rat brain minus cerebellum; read-out: IC50, 3H 8-OH-DPAT binding
Criterion: IC50 strictly less than 10 nM. Met: 1.0. Not met: 0.0.

Please review the entries below; each comes with its answer.
CC1(C)Cc2cccc(N3CCN(CCCCN4CCN(C5CCCCC5)C4=O)CC3)c2O1 | 1.0
CC1(C)Cc2cccc(N3CCN(CCCCCCN4CCN(C5CCCC5)C4=O)CC3)c2O1 | 1.0
CCN1CCN(CCCN2CCN(c3cccc4c3OCCO4)CC2)C1=O | 0.0
CC(C)S(=O)(=O)CCCN1CCN(c2cccc3c2OCCO3)CC1 | 0.0
O=c1n(CCN2CCN(c3cccc4c3OCCO4)CC2)ccn1-c1ccc(F)cc1 | 0.0
O=C1N(CCCN2CCN(c3cccc4c3OCCO4)CC2)CCN1C1CCCCC1 | 0.0
O=c1n(CCCCN2CCN(c3cccc4c3OCCO4)CC2)c2ccccc2n1-c1ccc(F)cc1 [Compound 13a] | 0.0

Consider the record given below.
[ask] Lab note: IC50 threshold 10 nM. Does this compound come in strictly under it? `O=C1N(CCCN2CCN(c3cccc4c3OCC4)CC2)CCN1c1ccccc1`
[reply] 0.0

* * *

Target: 5-HT1A receptor (Rattus norvegicus, UniProt P19327)
Sequence (P19327 1-422): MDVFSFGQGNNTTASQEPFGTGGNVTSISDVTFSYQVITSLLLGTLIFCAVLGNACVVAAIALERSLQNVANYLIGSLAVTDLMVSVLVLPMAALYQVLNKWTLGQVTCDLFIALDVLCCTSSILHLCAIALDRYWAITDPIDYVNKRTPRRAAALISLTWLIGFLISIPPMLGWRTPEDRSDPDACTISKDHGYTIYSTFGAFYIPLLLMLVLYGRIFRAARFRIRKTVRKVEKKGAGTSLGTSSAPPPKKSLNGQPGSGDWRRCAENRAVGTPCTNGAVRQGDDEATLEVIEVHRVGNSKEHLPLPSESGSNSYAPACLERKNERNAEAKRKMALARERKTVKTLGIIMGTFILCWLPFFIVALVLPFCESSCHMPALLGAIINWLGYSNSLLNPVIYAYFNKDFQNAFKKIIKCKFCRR
Experiment: Inhibition of 3H-8-OH-DPAT binding to serotonin 5-HT1A receptors in rat brain in vitro
Set-up: 5-HT1A receptors in membranes from rat brain minus cerebellum; from tissue; host or cells: rat brain minus cerebellum, membranes
Settings: 3H-8-OH-DPAT 1 nM; membranes from rat brain minus cerebellum; read-out: IC50, 3H 8-OH-DPAT binding
Description: Inhibition of ^3 H-8-OH-DPAT Binding to Serotonin 5-HT1A Receptors in Rat Brain in vitro. By this method the inhibition by drugs of the binding of the 5-HT1A agonist 3H-8-OH-DPAT (1 nM) to 5-HT1A receptors in membranes from rat brain minus cerebellum is determined in vitro . Accordingly, this is a test for affinity for the 5-HT1A receptor. The assay was performed as described by Hyttel et al., Drug Dev. Res. 1988, 15, 389-404.
outcome_measure: pIC50
Quick note: pIC50 values are minus log10 of concentrations in mol/L.

Some compounds with recorded pIC50:
O=C1N(CCN2CCN(c3cccc4ccsc34)CC2)CCN1C1CCCC1 [Compound 2aa] | 7.96
O=C1N(CCN2CCN(c3cccc4ccoc34)CC2)CCN1c1ccccc1 [Compound 2m] | 7.92
O=S(=O)(CCCN1CCN(c2cccc3c2OCCO3)CC1)c1ccccc1 [Compound 1b] | 8.11

[ask] Param readout= pIC50; system= 5-HT1A receptor (Rattus norvegicus, UniProt P19327); entry= O=C1N(CCN2CCN(c3cccc4c3OCCO4)CC2)CCN1c1ccccc1 [Compound 2c] ; returns value.
[reply] 7.89
